The measurements presented in this section are drawn from patent US20260166158A1.

System: NCI-H460 tumor-bearing mice (lung cancer)
Experiment: Biodistribution: lutetium accumulation in tumor, plasma and healthy tissues by ICP-MS
Format: in vivo
Details: second table; liver; 24 h
Experimental: Lutetium accumulation was measured in tumor, plasma and healthy tissues of NCI-H460 tumor-bearing mice (lung cancer). NCJ-H460 tumor bearing mice were dosed with 0.5 mg/kg of lutetium conjugates. At the time points indicated, mice were sacrificed and tumor, liver, kidneys and plasma were taken. All tissues were analyzed for lutetium content by ICP-MS, and lutetium uptake in % ID/g determined by the following equation: […]
Reported Liver uptake, % ID/g 24 h values for a set of compounds
Give the value, in units of % ID/g, as a plain number.

Liver uptake, % ID/g 24 h recorded for this compound, CCNC(=O)c1nnc(-c2cc(C(C)C)c(O)cc2O)n1-c1ccc(OC2CCN(C(=O)CCOCCOCCOCCOCCOCCOCCOCCOCCOCCOCCOCCOCCNC(=O)[C@H](CCCCNC(=O)CCCc3ccc(I)cc3)NC(=O)CN3CCN4CCN5CCN(CC3)CC(=O)[O][Lu]([O]C(=O)C4)[O]C(=O)C5)CC2)cc1 [CMP5] , is 3.80

Short answer for CCNC(=O)c1nnc(-c2cc(C(C)C)c(O)cc2O)n1-c1ccc(OC2CCN(C(=O)CCOCCOCCOCCOCCNC(=O)CN3CCN4CCN5CCN(CC3)CC(=O)[O][Lu]([O]C(=O)C4)[O]C(=O)C5)CC2)cc1 [CMP39] : Liver uptake, % ID/g 24 h was 0.47

// sample CCNC(=O)c1nnc(-c2cc(C(C)C)c(O)cc2O)n1-c1ccc(CC2CCN(C(=O)C[C@H](NC(=O)CC[C@H](C(=O)O)N3CCN4CCN5CCN(CC3)CC(=O)[O][Lu]([O]C(=O)C5)[O]C(=O)C4)C(=O)N[C@H](C)C(=O)N3CCC(Cc4ccc(-n5c(C(=O)NCC)nnc5-c5cc(C(C)C)c(O)cc5O)cc4)CC3)CC2)cc1 [CMP28] , its Liver uptake, % ID/g 24 h was 10.10

response.value for CCNC(=O)c1nnc(-c2cc(C(C)C)c(O)cc2O)n1-c1ccc(C2CCN(C(=O)CCOCCOCCOCCOCCOCCOCCOCCOCCOCCOCCOCCOCCNC(=O)CN3CCN4CCN5CCN(CC3)CC(=O)[O][Lu]([O]C(=O)C4)[O]C(=O)C5)CC2)cc1 [CMP33] (field: Liver uptake, % ID/g 24 h) = 0.91

For this compound ( CCNC(=O)c1nnc(-c2cc(C(C)C)c(O)cc2O)n1-c1ccc(CC2CCN(C(=O)CCOCCOCCOCCOCCNC(=O)[C@H](CCCCNC(=O)CCCc3ccc(I)cc3)NC(=O)CN(CC)CCN3CCN4CCN(C)CC(=O)[O][Lu]([O]C(=O)C4)[O]C(=O)C3)CC2)cc1 [CMP4] ), measured Liver uptake, % ID/g 24 h is 2.31

Entry CCNC(=O)c1nnc(-c2cc(C(C)C)c(O)cc2O)n1-c1ccc(C2CCN(C(=O)CCOCCOCCOCCOCCNC(=O)CN3CCN4CCN5CCN(CC3)CC(=O)[O][Lu]([O]C(=O)C4)[O]C(=O)C5)CC2)cc1 [CMP30] ; Liver uptake, % ID/g 24 h = 3.16

# Liver uptake, % ID/g 24 h of CCNC(=O)c1nnc(-c2cc(C(C)C)c(O)cc2O)n1-c1ccc(CN2CCN(C(=O)CCNC(=O)[C@@H](CCC(=O)O)NC(=O)[C@@H](CCC(=O)O)NC(=O)[C@@H](CCC(=O)O)NC(=O)COCCOCCNC(=O)CCCCn3cc(CN(CCCNC(=O)CC[C@H](C(=O)O)N4CCN5CCN6CC(=O)[O][Lu]([O]C(=O)C5)[C]5(C6)OC(=O)CN5CC4)C(=O)CCCNC(=O)CCCc4ccc(I)cc4)nn3)CC2)cc1 (stereo partly shown) [CMP51] = 1.35
